Biological target: T1, Adeno-associated virus 9 (AAV9) virion (adeno-associated virus 9)
T1 construct: Intact virion; capsid of VP1, VP2, VP3; also called AAV9/luc; AAV9 capsid
Test: co-IP with ADK9/LC-MS/MS, AAV9 + human serum vs control

{"binder": "CD5 antigen-like (other, also called CD5L) SPSGVRLVGGLHRCEGRVEVEQKGQWGTVCDDGWDIKDVAVLCRELGCGAASGTPSGILYEPPAEKEQKVLIQSVSCTGTEDTLAQCEQEEVYDCSHDEDAGASCENPESSFSPVPEGVRLADGPGHCKGRVEVKHQNQWYTVCQTGWSLRAAKVVCRQLGCGRAVLTQKRCNKHAYGRKPIWLSQMSCSGREATLQDCPSGPWGKNTCNHDEDTWVECEDPFDLRLVGGDNLCSGRLEVLHKGVWGSVCDDNWGEKEDQVVCKQLGCGKSLSPSFRDRKCYGPGVGRIWLDNVRCSGEEQSLEQCQHRFWGFHDCTHQEDVAVICSG", "unitsLabel": "fold", "fold change": 1.23}
